- Read-out: CD38, CD38 (gene 952)
- Experiment: BSK_SAg_CD38: BioMAP Diversity Plus: SAg Assay for CD38 Biomarker Activity (AID 2283087)
- Condition: primary human HUVEC with PBMC; actives raise or lower the signal
Calls of active or inactive are those of the source. Rule for the calls: active = hit-call score of the fitted dose curve at least 0.9, where 1 is the maximum; inactive = score below 0.9.
Bench note: report the call from active, inactive

Solved cases below.
{"Compound": "COC(=O)c1c(C(F)F)nc(C(F)(F)F)c(C2=NCCS2)c1CC(C)C", "Discrete label": "active"}
{"Compound": "O=C1C2CC=CCC2C(=O)N1SC(Cl)(Cl)Cl (stereo not given)", "Discrete label": "active"}
{"Compound": "CNC(=O)N(C)c1nnc(C(C)(C)C)s1", "Discrete label": "inactive"}
{"Compound": "OC(c1ccc(Cl)cc1)(c1ccc(Cl)cc1)C(Cl)(Cl)Cl", "Discrete label": "active"}
{"Compound": "CN/C(=N\\[N+](=O)[O-])NCc1cnc(Cl)s1", "Discrete label": "inactive"}

[in] Check the results log: what was the call for COCC(C)N(C(=O)CCl)c1c(C)csc1C (stereo not given) ?
[out] inactive

[in] What about COc1cc(OC)nc(NC(=O)NS(=O)(=O)c2ncccc2OCC(F)(F)F)n1 ?
[out] inactive

The origin of these recorded values is PubChem BioAssay (EPA / NIEHS).
